- measured.on: EcSecA (Escherichia coli, UniProt P10408)
- Sequence (P10408 whole entry): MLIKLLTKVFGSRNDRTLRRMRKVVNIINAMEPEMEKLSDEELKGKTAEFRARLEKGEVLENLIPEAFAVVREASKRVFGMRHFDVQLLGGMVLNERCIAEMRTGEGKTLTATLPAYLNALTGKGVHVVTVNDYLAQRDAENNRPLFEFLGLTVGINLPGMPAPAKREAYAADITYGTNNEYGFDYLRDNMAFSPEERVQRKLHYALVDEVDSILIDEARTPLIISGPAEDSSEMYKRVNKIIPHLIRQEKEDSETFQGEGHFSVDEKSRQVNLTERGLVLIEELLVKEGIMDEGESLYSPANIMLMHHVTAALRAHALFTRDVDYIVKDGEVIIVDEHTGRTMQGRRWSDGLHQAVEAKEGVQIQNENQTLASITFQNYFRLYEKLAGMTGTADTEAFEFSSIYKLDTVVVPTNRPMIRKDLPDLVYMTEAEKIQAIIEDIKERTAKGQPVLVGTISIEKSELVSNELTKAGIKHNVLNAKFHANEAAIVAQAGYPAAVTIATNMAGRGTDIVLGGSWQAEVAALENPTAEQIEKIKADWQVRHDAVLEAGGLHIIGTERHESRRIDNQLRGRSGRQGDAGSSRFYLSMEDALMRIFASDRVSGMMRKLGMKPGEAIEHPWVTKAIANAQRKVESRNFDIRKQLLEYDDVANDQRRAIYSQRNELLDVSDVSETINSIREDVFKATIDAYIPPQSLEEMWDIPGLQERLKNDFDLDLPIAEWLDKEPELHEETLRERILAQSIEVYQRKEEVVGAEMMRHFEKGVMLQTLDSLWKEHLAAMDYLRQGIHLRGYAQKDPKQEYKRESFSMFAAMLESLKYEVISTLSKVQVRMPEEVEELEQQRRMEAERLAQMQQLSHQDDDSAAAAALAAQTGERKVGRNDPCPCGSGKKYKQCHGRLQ
- assay.info: Whole EcSecA ATPase inhibition
measured.metric: pIC50
Please express pIC50 as -log10 of the molar concentration.

Indicate its recorded pIC50; the compound in question is N#Cc1c(-c2ccc(-c3ccccc3)cc2)nc(SCc2ccccc2)[nH]c1=O [17h] 4.22

====

- measured.on: EcN68 SecA (Escherichia coli, UniProt P10408)
measured.metric: pIC50
Please express pIC50 as -log10 of the molar concentration.

Indicate its recorded pIC50; the compound in question is N#Cc1c(-c2ccc(-c3ccccc3)cc2)nc(SCc2ccc(CSC3=NC(=O)C(C#N)C(c4ccc(-c5ccccc5)cc4)=N3)cc2)[nH]c1=O (stereo not shown) [16h] 5.70
